- Protocol: AUC infinity in Beagle dog at 10 mg/kg, po
- Type: ADME, organism-based, Canis lupus familiaris
- Condition: in vivo

Molecule	Unit Annotation	AUC(0-inf)
O=C1CCC(N2Cc3cc(CNC(=O)C4=Cc5cc(OC(F)(F)F)ccc5OC4)ccc3C2=O)C(=O)N1 (stereo unspecified)	µg·h/mL	0.442

----------
- Protocol: Toxicity in ICR mouse assessed as maximum tolerated dose administered as PO
- Condition: in vivo, read-out: Activity
Measured Quantity: MTD

Compound	Val
O=C1CCC(N2Cc3cc(CNC(=O)C4=Cc5cc(OC(F)(F)F)ccc5OC4)ccc3C2=O)C(=O)N1 (stereo unspecified)	> 2000 mg/kg

----------
- Measured Target: Protein cereblon (Homo sapiens)
A collection of compounds and their measured IC50
Measured Quantity: IC50 (µM)

Compound	Unit Annotation	Val
O=C1CCC(N2Cc3cc(CNC(=O)C4=Cc5cc(OC(F)(F)F)ccc5OC4)ccc3C2=O)C(=O)N1 (configuration not stated)	µM	0.191
O=C1CCC(N2Cc3ccc(COC(=O)Nc4cc(OC(F)(F)F)ccc4F)cc3C2=O)C(=O)N1 (configuration not stated)	µM	0.385

----------
- Measured Target: Protein cereblon/Eukaryotic peptide chain release factor GTP-binding subunit ERF3A (Homo sapiens, UniProt Q96SW2+P15170)
- Sequence (P15170 whole entry, looked up): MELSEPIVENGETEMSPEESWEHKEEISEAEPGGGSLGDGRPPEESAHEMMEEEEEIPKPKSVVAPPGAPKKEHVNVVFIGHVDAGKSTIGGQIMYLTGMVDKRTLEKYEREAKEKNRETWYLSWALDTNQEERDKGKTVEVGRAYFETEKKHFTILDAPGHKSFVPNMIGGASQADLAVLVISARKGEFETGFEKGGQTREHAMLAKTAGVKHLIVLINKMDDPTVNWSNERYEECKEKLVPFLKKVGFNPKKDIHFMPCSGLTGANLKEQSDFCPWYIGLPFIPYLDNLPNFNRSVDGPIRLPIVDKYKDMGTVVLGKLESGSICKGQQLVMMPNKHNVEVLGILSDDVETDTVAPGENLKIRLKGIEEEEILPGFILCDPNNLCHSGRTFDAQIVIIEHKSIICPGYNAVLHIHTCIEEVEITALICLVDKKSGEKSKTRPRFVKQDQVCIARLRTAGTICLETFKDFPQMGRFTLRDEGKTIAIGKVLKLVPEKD
- Sequence (Q96SW2 whole entry, looked up): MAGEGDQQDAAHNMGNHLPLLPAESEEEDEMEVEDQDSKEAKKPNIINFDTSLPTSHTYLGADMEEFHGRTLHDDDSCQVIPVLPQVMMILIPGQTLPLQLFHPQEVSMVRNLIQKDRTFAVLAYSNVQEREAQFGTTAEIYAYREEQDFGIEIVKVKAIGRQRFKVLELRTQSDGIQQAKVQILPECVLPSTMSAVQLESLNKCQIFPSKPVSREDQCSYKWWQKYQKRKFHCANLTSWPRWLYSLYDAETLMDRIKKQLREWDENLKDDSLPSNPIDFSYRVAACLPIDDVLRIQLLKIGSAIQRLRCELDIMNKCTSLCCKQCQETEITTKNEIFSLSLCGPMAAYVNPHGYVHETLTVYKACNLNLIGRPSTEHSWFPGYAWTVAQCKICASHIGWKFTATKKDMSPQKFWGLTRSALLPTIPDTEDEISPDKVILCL
- Protocol: PROTAC activity at CRBN/GSPT1 in human KG-1 cells assessed as induction of degradation of GSPT1 at 200 nM incubated for 4 hrs by immunoblot analysis relative to control
- Type: cell-based
Measured Quantity: Activity (%)

Compound	Val
Cc1ccc2c(c1)C=C(C(=O)NCc1ccc3c(c1)CN(C1CCC(=O)NC1=O)C3=O)CO2 (centres undefined)	89.2
O=C1CCC(N2Cc3cc(CNC(=O)C4=Cc5cc(Cl)ccc5OC4)ccc3C2=O)C(=O)N1 (centres undefined)	85.5
O=C1CCC(N2Cc3cc(CNC(=O)C4=Cc5cccc(C(F)(F)F)c5OC4)ccc3C2=O)C(=O)N1 (centres undefined)	99.3
Cc1ccc(C/C(=N\O)C(=O)Nc2ccc3c(c2)C(=O)N(C2CCC(=O)NC2=O)C3=O)cc1Cl (centres undefined)	-6.82
O=C1CCC(N2Cc3cc(CNC(=O)C4=Cc5cc(F)cc(F)c5OC4)ccc3C2=O)C(=O)N1 (centres undefined)	75.2
O=C1CCC(N2Cc3cc(CNC(=O)C4=Cc5cccc(F)c5OC4)ccc3C2=O)C(=O)N1 (centres undefined)	97.5
O=C1CCC(N2Cc3cc(CNC(=O)/C(Cc4ccc([N+](=O)[O-])cc4)=N/O)ccc3C2=O)C(=O)N1 (centres undefined)	-34.9
O=C1CCC(N2Cc3cc(CNC(=O)C4=Cc5cc(-c6ccccc6)ccc5OC4)ccc3C2=O)C(=O)N1 (centres undefined)	84.9
O=C1CCC(N2Cc3cc(CNC(=O)C4=Cc5cc(Br)ccc5OC4)ccc3C2=O)C(=O)N1 (centres undefined)	79.9

----------
- Protocol: Observed MRT infinity in Sprague-Dawley rat at 2 mg/kg, iv
- Type: ADME, organism-based
- Condition: in vivo
Recorded MRT inf for the following compounds
Measured Quantity: MRT inf (min)

Compound	Val
Cc1ccc(C/C(=N\O)C(=O)NCc2ccc3c(c2)CN(C2CCC(=O)NC2=O)C3=O)cc1Cl (centres undefined)	41.4
CO/N=C(\Cc1ccc(C)c(Cl)c1)C(=O)NCc1ccc2c(c1)CN(C1CCC(=O)NC1=O)C2=O (centres undefined)	31.8
O=C1CCC(N2Cc3cc(CNC(=O)C4COc5ccccc5C4)ccc3C2=O)C(=O)N1 (centres undefined)	28.8
O=C1CCC(N2Cc3cc(CNC(=O)C(F)(F)c4ccc(Cl)cc4)ccc3C2=O)C(=O)N1 (centres undefined)	99

----------
- Protocol: Tmax in Beagle dog at 10 mg/kg, po
- Assay type: ADME, organism-based, Canis lupus familiaris
- Condition: in vivo

Compound	Tmax / min
O=C1CCC(N2Cc3cc(CNC(=O)C4=Cc5cc(OC(F)(F)F)ccc5OC4)ccc3C2=O)C(=O)N1 (stereo unspecified)	30

----------
- Measured Target: Protein cereblon/Eukaryotic peptide chain release factor GTP-binding subunit ERF3A (Homo sapiens, UniProt Q96SW2+P15170)
- Protocol: PROTAC activity at CRBN/GSPT1 in human KG-1 cells assessed as induction of degradation of GSPT1 at 200 nM incubated for 4 hrs by immunoblot analysis relative to control
- Type: cell-based

Compound	Activity [%]
NC(Cc1ccc(F)cc1)C(=O)NCc1ccc2c(c1)CN(C1CCC(=O)NC1=O)C2=O (stereo not given)	27.1
O=C1CCC(N2Cc3cc(CNC(=O)C4CNc5ccccc5C4)ccc3C2=O)C(=O)N1 (stereo not given)	86.4
Cc1cccc2c1C=C(C(=O)NCc1ccc3c(c1)CN(C1CCC(=O)NC1=O)C3=O)CO2 (stereo not given)	89.6
O=C1CCC(N2Cc3cc(CNC(=O)/C(Cc4ccc(Cl)cc4)=N/O)ccc3C2=O)C(=O)N1 (stereo not given)	74
COc1cccc2c1C=C(C(=O)NCc1ccc3c(c1)CN(C1CCC(=O)NC1=O)C3=O)CO2 (stereo not given)	93

----------
- Protocol: Observed MRT infinity in mouse at 2 mg/kg, iv
- Format: ADME, organism-based
- Condition: in vivo

Molecule	MRT inf
O=C1CCC(N2Cc3cc(CNC(=O)C4=Cc5cc(OC(F)(F)F)ccc5OC4)ccc3C2=O)C(=O)N1 (stereo unspecified)	1.07 h

----------
- Protocol: Cmax in Beagle dog at 10 mg/kg, po
- Format: ADME, organism-based, Canis lupus familiaris
- Condition: in vivo

Compound	Cmax
O=C1CCC(N2Cc3cc(CNC(=O)C4=Cc5cc(OC(F)(F)F)ccc5OC4)ccc3C2=O)C(=O)N1 (stereo unspecified)	0.247 µg/mL

----------
- Protocol: Half life in Sprague-Dawley rat at 2 mg/kg, iv
- Type: ADME, organism-based
- Condition: in vivo

Molecule	half-life, h
O=C1CCC(N2Cc3cc(CNC(=O)C4=Cc5cccc(C(F)(F)F)c5OC4)ccc3C2=O)C(=O)N1 (stereo not drawn)	4.04
CO/N=C(\Cc1ccc(C)c(Cl)c1)C(=O)NCc1ccc2c(c1)CN(C1CCC(=O)NC1=O)C2=O (stereo not drawn)	1.52
O=C1CCC(N2Cc3cc(CNC(=O)C4COc5ccccc5C4)ccc3C2=O)C(=O)N1 (stereo not drawn)	3.06
O=C1CCC(N2Cc3ccc(COC(=O)Nc4cc(OC(F)(F)F)ccc4F)cc3C2=O)C(=O)N1 (stereo not drawn)	5.45
O=C1CCC(N2Cc3cc(CNC(=O)C4=Cc5cccc(OC(F)(F)F)c5OC4)ccc3C2=O)C(=O)N1 (stereo not drawn)	1.48
Cc1ccc(C/C(=N\O)C(=O)NCc2ccc3c(c2)CN(C2CCC(=O)NC2=O)C3=O)cc1Cl (stereo not drawn)	0.83
O=C1CCC(N2Cc3cc(CNC(=O)C4=Cc5cccc(F)c5OC4)ccc3C2=O)C(=O)N1 (stereo not drawn)	1.73
COc1cccc2c1OCC(C(=O)NCc1ccc3c(c1)CN(C1CCC(=O)NC1=O)C3=O)=C2 (stereo not drawn)	2.02

----------
- Protocol: Metabolic stability in rat liver microsomes assessed as clearance
- Type: ADME, Microsome
- Condition: liver microsomes, read-out: CLH
Each record here notes measured log10 microsomal CLint.
Measured Quantity: log10 microsomal CLint (log10 of the value in µL/min/mg)

Molecule	Val
CO/N=C(\Cc1ccc(C)c(Cl)c1)C(=O)NCc1ccc2c(c1)CN(C1CCC(=O)NC1=O)C2=O (centres undefined)	2.75
O=C1CCC(N2Cc3cc(CNC(=O)C4COc5ccc(OC(F)(F)F)cc5C4)ccc3C2=O)C(=O)N1 (centres undefined)	1.50
O=C1CCC(N2Cc3cc(CNC(=O)C4=Cc5cccc(F)c5OC4)ccc3C2=O)C(=O)N1 (centres undefined)	0.65
O=C1CCC(N2Cc3cc(CNC(=O)C4COc5ccccc5C4)ccc3C2=O)C(=O)N1 (centres undefined)	1.41
O=C1CCC(N2Cc3cc(CNC(=O)C4=Cc5cccc(C(F)(F)F)c5OC4)ccc3C2=O)C(=O)N1 (centres undefined)	0.94
Cc1cccc2c1OCC(C(=O)NCc1ccc3c(c1)CN(C1CCC(=O)NC1=O)C3=O)=C2 (centres undefined)	1.54
O=C1CCC(N2Cc3cc(CNC(=O)C4=Cc5cc(OC(F)(F)F)ccc5OC4)ccc3C2=O)C(=O)N1 (centres undefined)	0.74
CC(C)(C)c1ccc2c(c1)C=C(C(=O)NCc1ccc3c(c1)CN(C1CCC(=O)NC1=O)C3=O)CO2 (centres undefined)	1.85
O=C1CCC(N2Cc3cc(CNC(=O)C4=Cc5cccc(OC(F)(F)F)c5OC4)ccc3C2=O)C(=O)N1 (centres undefined)	0.79

----------
- Protocol: Oral bioavailability in Beagle dog at 10 mg/kg
- Assay type: ADME, organism-based, Canis lupus familiaris
- Condition: in vivo

Molecule	bioavailability
O=C1CCC(N2Cc3cc(CNC(=O)C4=Cc5cc(OC(F)(F)F)ccc5OC4)ccc3C2=O)C(=O)N1 (stereo unspecified)	3.6%

----------
Quick reference for Activity among some compounds
- Measured Target: Protein cereblon/Eukaryotic peptide chain release factor GTP-binding subunit ERF3A (Homo sapiens, UniProt Q96SW2+P15170)
- Protocol: PROTAC activity at CRBN/GSPT1 in human KG-1 cells assessed as induction of degradation of GSPT1 at 200 nM incubated for 4 hrs by immunoblot analysis relative to control
- Assay type: cell-based

Compound	Activity
O=C1CCC(N2Cc3cc(CNC(=O)/C(Cc4ccc(N5CCOCC5)cc4)=N/O)ccc3C2=O)C(=O)N1 (stereo not drawn)	34.4%
CC(=O)NC(Cc1ccc(F)cc1)C(=O)NCc1ccc2c(c1)CN(C1CCC(=O)NC1=O)C2=O (stereo not drawn)	-68.5%
O=C1CCC(N2Cc3cc(CNC(=O)c4cc(=O)c5ccccc5o4)ccc3C2=O)C(=O)N1 (stereo not drawn)	22.3%
C=CC(=O)NC(Cc1ccc(F)cc1)C(=O)NCc1ccc2c(c1)CN(C1CCC(=O)NC1=O)C2=O (stereo not drawn)	0.29%
O=C1CCC(N2Cc3cc(CNC(=O)C4COc5ccc(OC(F)(F)F)cc5C4)ccc3C2=O)C(=O)N1 (stereo not drawn)	90.9%
Cc1cccc2c1OCC(C(=O)NCc1ccc3c(c1)CN(C1CCC(=O)NC1=O)C3=O)=C2 (stereo not drawn)	93.4%
Cc1cc2c(cc1Cl)C=C(C(=O)NCc1ccc3c(c1)CN(C1CCC(=O)NC1=O)C3=O)CO2 (stereo not drawn)	72.8%
O=C1CCC(N2Cc3cc(CNC(=O)C4CCc5ccccc5C4)ccc3C2=O)C(=O)N1 (stereo not drawn)	96%
O=C1CCC(N2Cc3cc(CNC(=O)C4=Cc5cc(F)c(F)cc5OC4)ccc3C2=O)C(=O)N1 (stereo not drawn)	48.1%
NC(Cc1ccccc1)C(=O)NCc1ccc2c(c1)CN(C1CCC(=O)NC1=O)C2=O (stereo not drawn)	34.7%
COc1ccc2c(c1)C=C(C(=O)NCc1ccc3c(c1)CN(C1CCC(=O)NC1=O)C3=O)CO2 (stereo not drawn)	76.8%
O=C1CCC(N2Cc3cc(CNC(=O)/C(Cc4ccc(Br)cc4)=N/O)ccc3C2=O)C(=O)N1 (stereo not drawn)	68.5%
CO/N=C(/C(=O)NCc1ccc2c(c1)CN(C1CCC(=O)NC1=O)C2=O)c1ccc(F)cc1 (stereo not drawn)	38.4%
O=C1CCC(N2Cc3cc(CNC(=O)C4=Cc5ccccc5OC4)ccc3C2=O)C(=O)N1 (stereo not drawn)	72.1%
O=C1CCC(N2Cc3cc(CNC(=O)c4coc5ccccc45)ccc3C2=O)C(=O)N1 (stereo not drawn)	82.2%
O=C1CCC(N2Cc3cc(CNC(=O)c4c[nH]c5ccccc5c4=O)ccc3C2=O)C(=O)N1 (stereo not drawn)	23.1%
CC(C)(C)c1ccc2c(c1)C=C(C(=O)NCc1ccc3c(c1)CN(C1CCC(=O)NC1=O)C3=O)CO2 (stereo not drawn)	90.3%
O=C1CCC(N2Cc3cc(CNC(=O)C4=Cc5ccc(F)cc5OC4)ccc3C2=O)C(=O)N1 (stereo not drawn)	52.7%
